Kindly state IC50 for each of the entries shown.
- System name: PDGFRβ (Rattus norvegicus (Rat), UniProt Q05030)
- Sequence (Q05030 32-1097): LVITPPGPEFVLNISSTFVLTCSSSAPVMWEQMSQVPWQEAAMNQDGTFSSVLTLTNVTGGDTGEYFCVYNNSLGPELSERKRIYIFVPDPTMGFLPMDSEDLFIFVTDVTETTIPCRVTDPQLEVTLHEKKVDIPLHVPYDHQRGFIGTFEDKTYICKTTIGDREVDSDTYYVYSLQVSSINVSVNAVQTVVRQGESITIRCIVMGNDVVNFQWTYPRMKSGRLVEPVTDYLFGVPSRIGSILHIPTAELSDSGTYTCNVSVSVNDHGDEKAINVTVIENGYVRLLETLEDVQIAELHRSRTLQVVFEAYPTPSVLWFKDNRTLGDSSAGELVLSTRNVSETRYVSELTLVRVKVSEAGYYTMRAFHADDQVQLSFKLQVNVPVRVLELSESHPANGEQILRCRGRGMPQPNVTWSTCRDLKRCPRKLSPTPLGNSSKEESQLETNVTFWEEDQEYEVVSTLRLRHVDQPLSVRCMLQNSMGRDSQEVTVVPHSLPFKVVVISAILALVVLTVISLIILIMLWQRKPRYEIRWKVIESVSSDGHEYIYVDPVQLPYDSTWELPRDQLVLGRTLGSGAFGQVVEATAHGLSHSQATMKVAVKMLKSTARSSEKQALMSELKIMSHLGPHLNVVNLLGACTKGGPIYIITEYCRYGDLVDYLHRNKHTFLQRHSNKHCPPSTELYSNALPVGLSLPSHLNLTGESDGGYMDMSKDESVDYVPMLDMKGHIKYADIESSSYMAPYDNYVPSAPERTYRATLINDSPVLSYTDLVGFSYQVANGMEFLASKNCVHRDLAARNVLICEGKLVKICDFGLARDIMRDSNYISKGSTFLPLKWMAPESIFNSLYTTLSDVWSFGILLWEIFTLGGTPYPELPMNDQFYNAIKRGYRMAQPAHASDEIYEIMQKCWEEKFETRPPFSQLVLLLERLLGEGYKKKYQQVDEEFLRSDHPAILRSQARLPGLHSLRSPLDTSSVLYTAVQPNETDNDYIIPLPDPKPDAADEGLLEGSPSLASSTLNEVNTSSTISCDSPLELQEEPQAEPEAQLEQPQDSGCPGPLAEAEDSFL
- Procedure details: PDGFRβ Cellular Assay (PDGFRb P-Y751 HTRF in A10 cells stimulated with PDGF-BB)
- Assay type: cell-based
- Stated conditions: read-out: PDGFR Cellular IC50

Input: Write down IC50 measured for item Cc1ncc(NC(=O)CC2CNC2)cc1NC(=O)c1cnn2cc(-c3cnn4c3CCC4)sc12
Output: > 2000 nM

Input: Write down IC50 measured for item Cc1ncc(NC(=O)CNC2CCC2)cc1NC(=O)c1cnn2cc(-c3cnn4c3OCCC4)sc12
Output: 9.6 nM

Input: Write down IC50 measured for item Cc1ncc(NC(=O)CN2CCOC(C)(C)C2)cc1NC(=O)c1cnn2cc(-c3cnn(C)c3)sc12
Output: 8.3 nM

Input: Write down IC50 measured for item COCCn1cc(-c2cn3ncc(C(=O)Nc4cc(NC(=O)CN5CCCCCC5)cnc4C)c3s2)cn1
Output: 2.6 nM

Input: Write down IC50 measured for item Cc1ncc(NC(=O)CNC2CCCC2)cc1NC(=O)c1cnn2cc(-c3cnn4c3CCC4)sc12
Output: 2.6 nM
